read-out: HGF (gene 3082); test: LTEA_HepaRG_HGF: Life Technologies and Expression Analysis (LTEA) Assay for Hepatocyte Growth Facto (HGF) using HepaRG (AID 2283505); conditions: mRNA level, 48 h; actives raise or lower the signal
Active and inactive are the calls of the source. The calls were made as follows: active = hit-call score of the fitted dose curve at least 0.9, where 1 is the maximum; inactive = score below 0.9.
I would appreciate it if you answered using one of these outcomes: active, inactive

Please state the recorded outcome for this compound: `CC[C@H](C)C(=O)O[C@H]1C[C@H](O)C=C2C=C[C@H](C)[C@H](CC[C@@H](O)C[C@@H](O)CC(=O)O)[C@H]21`
inactive

// param item: `COc1cc2c(c(OC)c1OC)-c1ccc(OC)c(=O)cc1[C@@H](NC(C)=O)CC2` ; yields the recorded call
inactive

Assay result, entry `CCCCOC(=O)c1ccccc1` — outcome?
inactive

Could you check what this test reported for `OC[C@H]1O[C@@](CO)(O[C@H]2O[C@H](CO)[C@@H](O)[C@H](O)[C@H]2O)[C@@H](O)[C@@H]1O` ?
inactive

Hi, sorry to bother you, what did the test record for `C=CN1CCCC1=O` ?
inactive

Tell me the recorded outcome of this test for `CC1(C)C(=O)N(Cl)C(=O)N1Cl` .
inactive

Give the logged outcome of this assay for the following compound: `COS(C)(=O)=O`
inactive

GET /call?item= `O=C(O)c1cccc(C[C@@H]2COc3ccc(OCc4nc5cc(F)ccc5s4)cc3[C@@H]2O)c1` returns the recorded outcome of this test.
active

I'd appreciate the recorded outcome for `COCc1nnc(-c2ccc[n+]([O-])c2)n1-c1c(Cl)c(Cl)cc2[nH]c(=O)c(=O)[nH]c12` from this test.
inactive

Fill in: this test's call for `O=C(O)[C@H](O)[C@@H](O)C(=O)O` is ___
inactive

I would be grateful if you could indicate the recorded call for CCCCC(CC)C(=O)OCCOCCOCCOC(=O)C(CC)CCCC (configuration not stated) .
inactive

Write down the call the test reported for this compound. Item: `O=c1[nH]cnc2c1ncn2[C@H]1CC[C@@H](CO)O1`
inactive

Hey, what did the test say about `NNC(=O)c1ccncc1` ?
inactive

How did this test come out for `O=C(O)c1cccc(C(=O)O)c1` ?
inactive

Just curious, what result did `OCC(CO)(CO)CO` get here?
inactive

Just for reference, PubChem BioAssay (EPA / NIEHS) is where these values come from.
